Reported koff by item:
# targetEntity: T1, human programmed cell death protein 1 (hPD-1) C93S (aa 24-167) (Homo sapiens, UniProt Q15116, C93S)
# T1 construct: made as a fusion with a TEV site and human Fc; the Fc was cut off with TEV protease; source: Expi293F, purified (Protein A, TEV cleavage of Fc, SEC; monomer fractions); not shown: Fc (human), C-terminal, cleaved
# T1 sequence (Q15116 24-167 C93S): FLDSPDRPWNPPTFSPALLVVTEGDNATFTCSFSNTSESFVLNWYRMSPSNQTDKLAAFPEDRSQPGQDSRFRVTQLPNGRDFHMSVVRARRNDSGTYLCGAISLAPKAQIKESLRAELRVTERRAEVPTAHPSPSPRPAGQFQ
# testProtocol: SPR; Carterra LSA; Fab from the ammonium sulfate precipitate of the culture supernatant immobilised on a NiHC200M chip; hPD-1 (1-1024 nM) or mPD-1-Fc (4-1024 nM) as analyte, fourfold dilution series, no regeneration; HBS-EP pH 7.4, 25 °C; medians over the spots of a construct, KD = koff/kon
# testContext: one partner purified

# binder, koff (s⁻¹)
records = [
    ("toripalimab Fab L.L101Q (Fab, V domains shown, as the heavy chain of Sm3; light chain of Sm3 with this change; numbers count from the chain's first residue; source: Brevibacillus, culture supernatant (ammonium sulfate precipitate); not shown: 6xHis, C-terminal, kept; 6xHN, C-terminal, kept) VH: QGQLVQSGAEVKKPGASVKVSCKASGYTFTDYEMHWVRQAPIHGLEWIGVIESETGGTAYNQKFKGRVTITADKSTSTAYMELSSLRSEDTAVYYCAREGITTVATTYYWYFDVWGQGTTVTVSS VL: DVVMTQSPLSLPVTLGQPASISCRSSQSIVHSNGNTYLEWYLQKPGQSPQLLIYKVSNRFSGVPDRFSGSGSGTDFTLKISRVEAEDVGVYYCFQGSHVPQTFGQGTKLEIK", "2.5e-05"),
    ("toripalimab Fab L.K55Y (Fab, V domains shown, as the heavy chain of Sm3; light chain of Sm3 with this change; numbers count from the chain's first residue; source: Brevibacillus, culture supernatant (ammonium sulfate precipitate); not shown: 6xHis, C-terminal, kept; 6xHN, C-terminal, kept) VH: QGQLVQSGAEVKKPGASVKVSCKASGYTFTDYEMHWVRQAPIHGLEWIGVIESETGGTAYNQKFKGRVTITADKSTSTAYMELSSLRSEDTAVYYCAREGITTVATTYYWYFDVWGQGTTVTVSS VL: DVVMTQSPLSLPVTLGQPASISCRSSQSIVHSNGNTYLEWYLQKPGQSPQLLIYYVSNRFSGVPDRFSGSGSGTDFTLKISRVEAEDVGVYYCFQGSHVPLTFGQGTKLEIK", "1.3e-05"),
    ("toripalimab Fab L.L101S (Fab, V domains shown, as the heavy chain of Sm3; light chain of Sm3 with this change; numbers count from the chain's first residue; source: Brevibacillus, culture supernatant (ammonium sulfate precipitate); not shown: 6xHis, C-terminal, kept; 6xHN, C-terminal, kept) VH: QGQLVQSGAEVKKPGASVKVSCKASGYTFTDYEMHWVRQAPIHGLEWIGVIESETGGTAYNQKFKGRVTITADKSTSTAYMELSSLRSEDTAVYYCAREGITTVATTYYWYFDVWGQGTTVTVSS VL: DVVMTQSPLSLPVTLGQPASISCRSSQSIVHSNGNTYLEWYLQKPGQSPQLLIYKVSNRFSGVPDRFSGSGSGTDFTLKISRVEAEDVGVYYCFQGSHVPSTFGQGTKLEIK", "2.42e-05"),
]
